Numbers sourced from patent EP0179667B1.

Entries and their Inhibition of mouse locomotor activity
Tested on: Swiss-Webster male mice
protocol-summary: Mouse Activity and Screen Test Procedure (MAST): locomotor activity in actophotometer
Format: in vivo
run-parameters: 0.3 mg/kg intraperitoneally, one hour prior to testing
Protocol: Nine unfasted Swiss-Webster male mice weighing 20-30 g equally divided into three groups for each drug dose to be tested. That is, data for each dose level was generated by three separated groups of three mice each. A minimum of three dose levels (10, 30, and 100 mg/kg) are tested for each drug. […] All dosages are calculated as parent compound and given in volumes of 10 ml/kg. […] Data: The data obtained from the screen test are expressed as percent of mice falling off the screen. […]

compound: OC[C@H]1O[C@@H](n2cnc3c(NCC4=CCc5ccccc54)ncnc32)[C@H](O)[C@@H]1O [Example 22, N^6-[1H-inden-3-yl]methyladenosine]
system-name: Swiss-Webster male mice
Inhibition of mouse locomotor activity / %: 38

compound: OC[C@H]1O[C@@H](n2cnc3c(NCC4=CCCc5ccccc54)ncnc32)[C@H](O)[C@@H]1O
system-name: Swiss-Webster male mice
Inhibition of mouse locomotor activity / %: 9

compound: COc1cccc2c1CCCC2Nc1ncnc2c1ncn2[C@@H]1O[C@H](CO)[C@@H](O)[C@H]1O (some centres unmarked)
system-name: Swiss-Webster male mice
Inhibition of mouse locomotor activity / %: 7

compound: CC1CCc2ccccc2C1Nc1ncnc2c1ncn2[C@@H]1O[C@H](CO)[C@@H](O)[C@H]1O (some centres unmarked) [Example 4, N^6-[1-(2-Methyl)-tetralinyl]-adenosine]
system-name: Swiss-Webster male mice
Inhibition of mouse locomotor activity / %: 70

compound: OC[C@H]1O[C@H](n2cnc3c(NC4CCCc5ccccc54)ncnc32)[C@H](O)[C@@H]1O (stereo partly drawn) [Example 3, (S)-N^6-[1-Tetralinyl]-adenosine]
system-name: Swiss-Webster male mice
Inhibition of mouse locomotor activity / %: 34
